The measurements presented in this section are drawn from ChEMBL document CHEMBL3808348.

tgt: Proto-oncogene tyrosine-protein kinase Src (Homo sapiens, UniProt P12931)
Sequence (P12931 2-536 limits assumed): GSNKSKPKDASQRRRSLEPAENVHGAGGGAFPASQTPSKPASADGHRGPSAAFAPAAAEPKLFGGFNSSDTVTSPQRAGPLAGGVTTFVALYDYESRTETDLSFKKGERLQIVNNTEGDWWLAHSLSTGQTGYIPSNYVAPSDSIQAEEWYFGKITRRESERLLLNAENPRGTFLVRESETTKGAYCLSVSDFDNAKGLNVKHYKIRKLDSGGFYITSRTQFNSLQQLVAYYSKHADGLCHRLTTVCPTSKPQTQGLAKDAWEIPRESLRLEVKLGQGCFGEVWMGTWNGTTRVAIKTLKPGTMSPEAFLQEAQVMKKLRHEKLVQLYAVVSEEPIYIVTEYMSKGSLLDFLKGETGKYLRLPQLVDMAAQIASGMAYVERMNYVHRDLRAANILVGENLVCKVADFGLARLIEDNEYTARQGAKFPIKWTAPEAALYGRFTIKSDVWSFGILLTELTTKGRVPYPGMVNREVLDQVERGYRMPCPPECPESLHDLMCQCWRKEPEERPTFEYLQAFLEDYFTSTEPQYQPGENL
experimental-protocol: Inhibition of full length His-tagged human recombinant cSRC expressed in baculovirus using Fluorescein-Poly GT as substrate at 100 nM
measure-name: inhibition (%)

compound-smiles	inhibition / %
COC(=O)c1cc2cc(NCc3cc(NC(=O)Cc4ccccc4Br)ccc3C)cnc2[nH]1	65
COC(=O)c1cc2cc(NCc3cc(NC(=O)c4ccc(O)c(C(F)(F)F)c4)ccc3C)cnc2[nH]1	66
COC(=O)c1cc2cc(NCc3cc(NC(=O)c4cc(N(C)C)cc(C(F)(F)F)c4)ccc3C)cnc2[nH]1	108
CC(=O)c1cc2cc(CCc3cc(NC(=O)c4ccc(CN5CCN(C)CC5)cc4)ccc3C)cnc2[nH]1	77
